The reported measurements were obtained from patent US20160297884A1.

- Experimental System: T1, Human BCMA (human, UniProt Q02223 1-54, limits assumed)
- T1 construct: Soluble analyte in SPR; construct not described; also called huBCMA; B-cell maturation antigen
- T1 sequence (looked up): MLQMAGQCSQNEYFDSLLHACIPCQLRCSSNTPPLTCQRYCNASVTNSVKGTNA
- Test Summary: SPR, IgG immobilised, 37 C
Give measured Kd for each item. Keep answers brief.

{"Binder": "L3.PY/L3.KF/H2.YQ (antibody, V domains shown, IgG) VH: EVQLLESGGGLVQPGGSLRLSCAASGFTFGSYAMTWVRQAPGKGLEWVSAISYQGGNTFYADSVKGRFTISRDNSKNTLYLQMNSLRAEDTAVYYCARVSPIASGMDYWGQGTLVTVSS VL: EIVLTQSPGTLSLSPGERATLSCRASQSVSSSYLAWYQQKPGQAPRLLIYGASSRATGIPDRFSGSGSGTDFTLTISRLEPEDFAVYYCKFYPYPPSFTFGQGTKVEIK", "Kd": "1140 pM"}

Hi! Can you tell me Kd for each of these binders?
1. L3.PY/H2.YQ (antibody, V domains shown, IgG) VH: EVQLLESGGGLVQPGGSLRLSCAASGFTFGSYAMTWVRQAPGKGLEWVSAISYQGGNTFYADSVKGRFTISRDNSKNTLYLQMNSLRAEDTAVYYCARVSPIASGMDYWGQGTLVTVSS VL: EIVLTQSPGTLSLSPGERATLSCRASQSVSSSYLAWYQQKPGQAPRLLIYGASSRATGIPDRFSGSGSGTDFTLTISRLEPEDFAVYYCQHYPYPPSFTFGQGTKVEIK
2. L3.PY/H2.HA (antibody, V domains shown, IgG) VH: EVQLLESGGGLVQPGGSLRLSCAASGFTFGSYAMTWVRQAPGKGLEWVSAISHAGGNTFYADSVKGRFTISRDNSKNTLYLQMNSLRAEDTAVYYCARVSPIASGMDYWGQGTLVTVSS VL: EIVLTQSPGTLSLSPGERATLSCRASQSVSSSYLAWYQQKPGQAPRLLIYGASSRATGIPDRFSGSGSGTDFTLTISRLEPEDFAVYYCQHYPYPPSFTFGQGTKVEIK

["600 pM", "600 pM"]
